- Tested on: HeLa
- EXPERIMENTAL PROTOCOL: Cytotoxicity against human HeLa cells assessed as reduction in cell viability incubated for 72 hrs measured by crystal violet based micro plate reader method
- CONDITION NOTES: hela, 72 h
MEASURED QUANTITY: CC50 (µM)
Provide only the numeric value, understood in µM.

The recorded CC50 for entry CN(C)C(=O)c1cc(CCCOc2ccc(-c3noc(C(F)(F)F)n3)cc2)on1 equals 28

The recorded CC50 for entry CN(C)C(=O)c1cc(CCCOc2ccc(-c3noc(C(F)(F)F)n3)cc2F)on1 equals 20.2

The recorded CC50 for entry CCOC(=O)c1cc(CCCOc2ccc(-c3noc(C(F)(F)F)n3)cc2C(F)(F)F)on1 equals 28.4

The recorded CC50 for entry COc1ccc(-c2cc(CCCOc3c(C)cc(-c4noc(C(F)(F)F)n4)cc3C)on2)cc1OC equals 41.9

The recorded CC50 for entry CN(C)C(=O)c1cc(CCCOc2ccc(-c3noc(C(F)(F)F)n3)cc2[N+](=O)[O-])on1 equals 22.5

====

- Tested on: rhinovirus B14
- EXPERIMENTAL PROTOCOL: Antiviral activity against Rhinovirus B14 infected in human HeLa cell line assessed as inhibition of virus-induced cytopathic effect measured after 72 hrs by crystal violet uptake assay
- Assay type: functional, organism-based
- CONDITION NOTES: Rhinovirus B, HeLa, 72 h; read-out: IC50
Criterion: IC50 strictly less than 200 nM. Met: MET. Not met: NOT MET.

STRUCTURE SMILES STRING: CNC(=O)c1cc(CCCOc2c(C)cc(-c3noc(C(F)(F)F)n3)cc2C)on1
CLASS LABEL: MET
--
STRUCTURE SMILES STRING: COc1cc(-c2noc(C(F)(F)F)n2)ccc1OCCCc1cc(C(=O)N(C)C)no1
CLASS LABEL: MET
--
STRUCTURE SMILES STRING: CC(=O)Nc1cc(-c2noc(C(F)(F)F)n2)ccc1OCCCc1cc(C(=O)N(C)C)no1
CLASS LABEL: NOT MET
--
STRUCTURE SMILES STRING: CCOC(=O)c1cc(CCCOc2ccc(-c3noc(C(F)(F)F)n3)cc2)on1
CLASS LABEL: NOT MET
--
STRUCTURE SMILES STRING: CN(C)C(=O)c1cc(CCCOc2ccc(-c3noc(C(F)(F)F)n3)cc2-n2cccc2)on1
CLASS LABEL: NOT MET

Inquiry: Strictly below 200 nM in IC50? CCOC(=O)c1cc(CCCOc2ccc(-c3noc(C(F)(F)F)n3)cc2/N=C/N(C)C)on1
Reply text: NOT MET

Inquiry: Strictly below 200 nM in IC50? CCNC(=O)c1cc(CCCOc2c(C)cc(-c3noc(C(F)(F)F)n3)cc2C)on1
Reply text: MET

Inquiry: Strictly below 200 nM in IC50? Cc1cc(-c2noc(C(F)(F)F)n2)cc(C)c1OCCCc1cc(C(=O)NCc2ccccc2)no1
Reply text: NOT MET

Inquiry: Strictly below 200 nM in IC50? CCOC(=O)c1cc(CCCOc2ccc(-c3noc(C(F)(F)F)n3)cn2)on1
Reply text: NOT MET

Inquiry: Strictly below 200 nM in IC50? Cc1cc(-c2noc(C(F)(F)F)n2)ccc1OCCCc1cc(C(=O)N(C)C)no1
Reply text: MET

Inquiry: Strictly below 200 nM in IC50? Cc1cc(-c2noc(C(F)(F)F)n2)cc(C)c1OCCCc1cc(C(=O)OC(C)C)no1
Reply text: NOT MET

Inquiry: Strictly below 200 nM in IC50? CN(C)C(=O)c1cc(CCCOc2ccc(-c3noc(C(F)(F)F)n3)cc2N)on1
Reply text: NOT MET

Inquiry: Strictly below 200 nM in IC50? CCOC(=O)c1cc(CCCOc2c(OC)cc(-c3noc(C(F)(F)F)n3)cc2[N+](=O)[O-])on1
Reply text: NOT MET

Inquiry: Strictly below 200 nM in IC50? COC(=O)c1cc(CCCOc2c(C)cc(-c3noc(C(F)(F)F)n3)cc2C)on1
Reply text: NOT MET

Inquiry: Strictly below 200 nM in IC50? CCOC(=O)c1cc(CCCOc2ccc(-c3noc(C(F)(F)F)n3)cc2N)on1
Reply text: NOT MET

====

- Tested on: Coxsackievirus B3
- EXPERIMENTAL PROTOCOL: Antiviral activity against wild type Coxsackievirus B3 97927 infected in human HeLa cell line assessed as inhibition of virus-induced cytopathic effect measured after 48 hrs by crystal violet uptake assay
- Format: functional, organism-based
- CONDITION NOTES: Enterovirus B, 97927, HeLa, 48 h; read-out: IC50
List of IC50 values.
Provide only the numeric value, understood in nM.

STRUCTURE SMILES STRING: CCNC(=O)c1cc(CCCOc2c(C)cc(-c3noc(C(F)(F)F)n3)cc2C)on1
TEST RESULT: 50

Tested on Coxsackievirus B3: CCOC(=O)c1cc(CCCOc2ccc(-c3noc(C(F)(F)F)n3)cc2-n2cccc2)on1 . Observed IC50: 10200

Tested on Coxsackievirus B3: CCOC(=O)c1cc(CCCOc2ccc(-c3noc(C(F)(F)F)n3)cc2/N=C/N(C)C)on1 . Observed IC50: 20000

Tested on Coxsackievirus B3: CN(C)C(=O)c1cc(CCCOc2ccc(-c3noc(C(F)(F)F)n3)cc2)on1 . Observed IC50: 458

Tested on Coxsackievirus B3: Cc1cc(-c2noc(C(F)(F)F)n2)cc(C)c1OCCCc1cc(C(=O)N(C)C)no1 . Observed IC50: 20

====

List of CC50 values.
- System: HeLa
- EXPERIMENTAL PROTOCOL: Cytotoxicity against human HeLa cells assessed as reduction in cell viability incubated for 72 hrs measured by crystal violet based micro plate reader method
- CONDITION NOTES: hela, 72 h
Provide only the numeric value, understood in µM.

COMPOUND: Cc1cc(-c2noc(C(F)(F)F)n2)cc(C)c1OCCCc1cc(C(=O)N(C)C)no1
MEASURED QUANTITY: CC50
TEST RESULT: 13.2

The recorded CC50 for entry Cc1cc(CCCOc2c(C)cc(-c3noc(C(F)(F)F)n3)cc2C)on1 [PLECONARIL] equals 26.2

====

- EXPERIMENTAL PROTOCOL: Selectivity index, ratio of CC50 for human HeLa cells to IC50 for Rhinovirus B5 infected in HeLa cell line assessed as inhibition of virus-induced cytopathic effect
- Assay type: toxicity
- CONDITION NOTES: read-out: Selectivity Index
MEASURED QUANTITY: selectivity ratio
API doc: respond with a numeric literal and nothing else, no unit.

The recorded selectivity ratio for entry Cc1cc(-c2noc(C(F)(F)F)n2)ccc1OCCCc1cc(C(=O)N(C)C)no1 equals 2.6

====

- Tested on: Coxsackievirus B3
- EXPERIMENTAL PROTOCOL: Antiviral activity against pleconaril-resistant Coxsackievirus B3 97927 11207T/I1092 mutant infected in human HeLa cell line assessed as inhibition of virus-induced cytopathic effect measured after 48 hrs by crystal violet uptake assay
- Format: functional, organism-based
MEASURED QUANTITY: IC50

STRUCTURE SMILES STRING: Cc1cc(-c2noc(C(F)(F)F)n2)cc(C)c1OCCCc1cc(C(=O)OC(C)C)no1
SUBJECT OF TEST: Coxsackievirus B3
TEST RESULT: Not Active

STRUCTURE SMILES STRING: Cc1cc(-c2noc(C(F)(F)F)n2)cc(C)c1OCCCc1cc(C(N)=O)no1
SUBJECT OF TEST: Coxsackievirus B3
TEST RESULT: Not Active

STRUCTURE SMILES STRING: CNC(=O)c1cc(CCCOc2c(C)cc(-c3noc(C(F)(F)F)n3)cc2C)on1
SUBJECT OF TEST: Coxsackievirus B3
TEST RESULT: Not Active

STRUCTURE SMILES STRING: CCNC(=O)c1cc(CCCOc2c(C)cc(-c3noc(C(F)(F)F)n3)cc2C)on1
SUBJECT OF TEST: Coxsackievirus B3
TEST RESULT: Not Active

# ---- query compound ----
Tested on Coxsackievirus B3: Cc1cc(-c2noc(C(F)(F)F)n2)cc(C)c1OCCCc1cc(C(=O)NCc2ccccc2)no1 . Observed IC50: Not Active

====

List of CC50 values.
- System: HeLa
- EXPERIMENTAL PROTOCOL: Cytotoxicity against human HeLa cells assessed as reduction in cell viability incubated for 72 hrs measured by crystal violet based micro plate reader method
- CONDITION NOTES: hela, 72 h

Please review the entries below; each comes with its answer.
STRUCTURE SMILES STRING: COC(=O)c1cc(CCCOc2c(C)cc(-c3noc(C(F)(F)F)n3)cc2C)on1
SUBJECT OF TEST: HeLa
TEST RESULT: 35.4 µM
--
STRUCTURE SMILES STRING: CN(C)C(=O)c1cc(CCCOc2ccc(-c3noc(C(F)(F)F)n3)cc2C(F)(F)F)on1
SUBJECT OF TEST: HeLa
TEST RESULT: 19.2 µM
--
STRUCTURE SMILES STRING: CC(=O)Nc1cc(-c2noc(C(F)(F)F)n2)ccc1OCCCc1cc(C(=O)N(C)C)no1
SUBJECT OF TEST: HeLa
TEST RESULT: > 100 µM
--
STRUCTURE SMILES STRING: CCOC(=O)c1cc(CCCOc2ccc(-c3noc(C(F)(F)F)n3)cc2)on1
SUBJECT OF TEST: HeLa
TEST RESULT: > 100 µM
--
STRUCTURE SMILES STRING: Cc1cc(-c2noc(C(F)(F)F)n2)ccc1OCCCc1cc(C(=O)N(C)C)no1
SUBJECT OF TEST: HeLa
TEST RESULT: 13.4 µM
--
STRUCTURE SMILES STRING: CCOC(=O)c1cc(CCCOc2ccc(-c3noc(C(F)(F)F)n3)cc2C)on1
SUBJECT OF TEST: HeLa
TEST RESULT: 35.1 µM

The recorded CC50 for entry CCNC(=O)c1cc(CCCOc2c(C)cc(-c3noc(C(F)(F)F)n3)cc2C)on1 equals > 100 µM

The recorded CC50 for entry CN(C)C(=O)c1cc(CCCOc2ccc(-c3noc(C(F)(F)F)n3)cn2)on1 equals 48.8 µM

The recorded CC50 for entry CCOC(=O)c1cc(CCCOc2c(OC)cc(-c3noc(C(F)(F)F)n3)cc2[N+](=O)[O-])on1 equals > 100 µM
